Test system: MS2 coat protein
PROCEDURE DETAILS: apparent KD of MS2 coat protein; designed switch direction (-1 OFF switch, 1 ON switch): -1; higher = weaker reporter binding
TEST PARAMETERS: input ligand: microRNA oligo, concentration not stated
Give measured apparent KD of MS2 coat protein for each item. Keep answers brief.
Please give the number followed by its unit.

INPUT SEQUENCE	MEASURED ATTRIBUTE	RESULT
ACAUGUCAUUGAGGAUAUCGCACACAUGAGGAUCACCCAUGUAAACGGAUGCUCAUUAGUGGGUUCGAGAAGGCGAUGUACAUU [Ex NG2 #99] (Eterna round: R96, puzzle: Exclusion NG 2)	apparent KD of MS2 coat protein	72.9 nM
GAAGAAAAGGCAGGAUAUCAGAAACACAUGAUAAGGAGAUGCAACAUGAGGAUCACCCAUGUAAAUGAGAAGGGCCGCCCUUCC [Arbiis] (Eterna round: R96, puzzle: Exclusion NG 2)	apparent KD of MS2 coat protein	28 nM
AAAACUCACGUAGGAUAUCAUUCCUUAAGGUAGUGAGAAGGACGUGACUACAUGUCCUAAAACAUGAGGAUCACCCAUGUAGGC [Riis] (Eterna round: R96, puzzle: Exclusion NG 1)	apparent KD of MS2 coat protein	24.2 nM
CUGAACCCGGUAGGAUAUAUUGUGGGCGGGCGUGGAACGACAUGAGGAUCACCCAUGUGAUUGAGGUAGAAGGGCCGAGAGGUU [Excl-NG2-LRO17] (Eterna round: R96, puzzle: Exclusion NG 2)	apparent KD of MS2 coat protein	31 nM
AAUUAUUGAUGAGGAUAUUGUGGUGAAACACCACAAGAAGGCAUUAUACACAUGAGGAUCACCCAUGUGAGCCUGAUGCUUAUG [Ex NG1 #55] (Eterna round: R96, puzzle: Exclusion NG 1)	apparent KD of MS2 coat protein	12.7 nM

Lab note: each sequence below needs its apparent KD of MS2 coat protein filled in.
1. AGUCAGGCGGUAGGAUAUCCAAAUCGAGUGACCCUCUCAUAACAUGAGGAUCACCCAUGUCGGUGGGAGAAGGGCCGUAAGGCA [Mat - Exclusion NG 2 - Mod of JL - D64] (Eterna round: R96, puzzle: Exclusion NG 2)
2. ACAGUAUGAUCCGCUCAACAUGAGGAUCACCCAUGUGAUGACUAGGAUAUUAGUAGCCCGCGCAUUAAGAAGGAGUUACGAUUG [Eternabot solution 33] (Eterna round: R96, puzzle: Exclusion NG 3)
3. GGUCCACAUGAGGAUCACCCAUGUUAGGAUAUCUCCCGCCUCCUCACUGGAGACGGACAGAGAAGGAACAUCAA [Vetibele] (Eterna round: R96, puzzle: Exclusion 1)
4. CACCGUUACUGAGGAUAUGGCACAUGAGGAUCACCCAUGUAAUAAAUGAGAAUUUCGGAUGUAUUCCAGAAGGCAGUAACCGGC [Ostricism 69 - Jieux - Exclusion NG 2] (Eterna round: R96, puzzle: Exclusion NG 2)

1. 16.4 nM
2. 13.9 nM
3. 20.5 nM
4. 23.3 nM

---

Tested on: K4 kissing-loop RNA reporter;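 note: bound reporter read as fluorescence of individual clusters on recovered sequencing chips by microscopy, with normalized cluster intensities fitted with a binding model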
PROCEDURE DETAILS: apparent KD of K4 kissing-loop reporter; higher = weaker reporter binding
TEST PARAMETERS: Eterna round: R107; input ligand: none
Give measured apparent KD of K4 kissing-loop reporter for each item. Keep answers brief.
Give bare numbers, in µM.

> print(dat)
                             input.sequence                assayed.system  result.number
1  GGAUAGGACAUAGGAUAUGGGCUAGGCAAGAAUAACUUGUCUAGCAAAUCCAUGAGGAGUGAUGUUCCAGAAGGGUGUCCUAUCG [FmnBX 1 U11+G75]  K4 kissing-loop RNA reporter         0.0994

Lab note: each sequence below needs its apparent KD of K4 kissing-loop reporter filled in.
1. GCCUAGCAGGGAAGGAGCGGCAUAGGCAUAGAUAAUAUGCAGUUAGUGAUGUUAACACUAUGCCAGGUAGGUCGCCCUGCUAGGC [KL-SSArg B8]
2. GCUAUGGUAGGAAGGAGCGCUGCGUUGUUUUUACGAGUGAUGUUCGGAAGCGGCGUGUUAAAGCAGGUAGGUCGCCUACUAUAGC [Arginine B K4 24]

0.192
0.184
